Assay: In vivo pharmacokinetic evaluation in mice (IV and PO)
Conditions: mouse, plasma; CD-1 mice, IV, 3 mg/kg; read-out: Vss
Friendly reminder: Vd below 3 L/kg is Y, at or above is N.

- Cc1nc(N[C@@H]2CCCN([C@@H](C)CO)C2)nnc1-c1ccc(C(F)(F)F)cc1O: N
- Cc1nc(N[C@@H]2CCCC[C@H]2O)nnc1-c1ccc(C(F)(F)F)cc1O: Y
- Oc1cc(C(F)(F)F)ccc1-c1nnc(N[C@@H]2CCCC[C@H]2O)c2cc(F)ccc12: Y
- Cc1nc(N[C@@H]2CCCN(CCO)C2)nnc1-c1ccc(C(F)(F)F)cc1O: N

Okay, next one:
Does the reported Vd of the following molecule sit strictly below 3 L/kg? Cc1nc(N[C@@H]2CCCN(C(C)(C)CO)C2)nnc1-c1ccc(C(F)(F)F)cc1O N
